Source of measurements: patent US20260151403A1

# SUBJECT_OF_TEST: [NEK7]-[compound of formula (I)]-[CRBN/DDB1] complex (Homo sapiens, UniProt Q8TDX7+Q96SW2)
# Sequence (Q8TDX7 whole entry): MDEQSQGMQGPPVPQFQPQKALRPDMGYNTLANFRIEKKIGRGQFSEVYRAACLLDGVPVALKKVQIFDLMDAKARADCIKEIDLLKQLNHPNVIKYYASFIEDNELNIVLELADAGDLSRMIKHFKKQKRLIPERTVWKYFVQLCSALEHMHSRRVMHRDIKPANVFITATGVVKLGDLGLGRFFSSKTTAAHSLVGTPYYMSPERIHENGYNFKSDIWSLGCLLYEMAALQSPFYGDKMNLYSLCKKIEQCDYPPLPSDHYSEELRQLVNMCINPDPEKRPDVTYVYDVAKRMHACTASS
# Sequence (Q96SW2 whole entry): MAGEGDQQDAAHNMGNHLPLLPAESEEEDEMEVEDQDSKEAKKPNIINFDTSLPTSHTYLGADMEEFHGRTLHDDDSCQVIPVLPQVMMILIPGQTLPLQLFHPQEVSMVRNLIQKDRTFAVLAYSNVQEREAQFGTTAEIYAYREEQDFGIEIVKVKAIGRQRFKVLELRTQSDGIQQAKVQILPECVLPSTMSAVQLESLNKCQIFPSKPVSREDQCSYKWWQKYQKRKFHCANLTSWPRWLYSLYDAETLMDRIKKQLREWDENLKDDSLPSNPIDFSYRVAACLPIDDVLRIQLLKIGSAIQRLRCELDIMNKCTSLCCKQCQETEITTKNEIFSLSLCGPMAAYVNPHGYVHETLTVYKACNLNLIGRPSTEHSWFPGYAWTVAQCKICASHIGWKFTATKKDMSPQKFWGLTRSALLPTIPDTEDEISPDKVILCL
# Sequence (Q16531 whole entry partner): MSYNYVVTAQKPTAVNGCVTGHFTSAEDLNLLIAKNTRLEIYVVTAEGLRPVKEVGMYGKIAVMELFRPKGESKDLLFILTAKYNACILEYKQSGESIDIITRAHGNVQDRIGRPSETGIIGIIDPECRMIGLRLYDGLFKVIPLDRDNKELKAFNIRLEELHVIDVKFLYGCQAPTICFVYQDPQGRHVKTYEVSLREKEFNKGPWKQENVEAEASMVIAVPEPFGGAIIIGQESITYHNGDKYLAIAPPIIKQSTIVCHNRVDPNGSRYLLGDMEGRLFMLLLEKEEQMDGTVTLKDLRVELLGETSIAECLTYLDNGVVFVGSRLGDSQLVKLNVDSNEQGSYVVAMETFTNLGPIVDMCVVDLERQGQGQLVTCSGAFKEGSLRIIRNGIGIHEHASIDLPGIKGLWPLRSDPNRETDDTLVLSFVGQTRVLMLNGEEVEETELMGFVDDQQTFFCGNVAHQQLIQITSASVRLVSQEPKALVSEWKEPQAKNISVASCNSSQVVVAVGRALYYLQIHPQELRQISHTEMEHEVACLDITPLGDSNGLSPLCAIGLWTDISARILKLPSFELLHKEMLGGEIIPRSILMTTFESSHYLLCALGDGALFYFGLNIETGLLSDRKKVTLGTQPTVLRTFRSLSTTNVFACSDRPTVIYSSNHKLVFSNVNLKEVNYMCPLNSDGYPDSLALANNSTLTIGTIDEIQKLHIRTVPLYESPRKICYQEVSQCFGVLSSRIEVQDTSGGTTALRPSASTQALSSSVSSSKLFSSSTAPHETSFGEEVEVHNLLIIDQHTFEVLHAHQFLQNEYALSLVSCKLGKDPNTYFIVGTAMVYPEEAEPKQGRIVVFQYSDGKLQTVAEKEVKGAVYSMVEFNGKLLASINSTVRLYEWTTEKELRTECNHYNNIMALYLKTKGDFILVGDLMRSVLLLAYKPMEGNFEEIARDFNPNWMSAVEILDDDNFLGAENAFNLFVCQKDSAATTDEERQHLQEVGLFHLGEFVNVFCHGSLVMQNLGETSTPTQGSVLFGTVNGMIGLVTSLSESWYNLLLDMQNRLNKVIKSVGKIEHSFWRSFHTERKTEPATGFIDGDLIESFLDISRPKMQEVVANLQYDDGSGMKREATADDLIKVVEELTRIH
# ASSAY_OVERVIEW: HTRF ternary complex assay
# Assay type: binding
# DETAILS: dose-response, 180 min at 25° C.; read-out: HTRF ternary complex Average pEC50 by molecule (converted)

COMPOUND	EC50
O=C1CCC(N2Cc3cc(C4CCCC(C(F)(F)F)N4)ccc3C2=O)C(=O)N1 (stereo not drawn) [Compound 60]	316 to 1000 nM
Cc1cc(C2CCCCN2)cc2c1C(=O)N(C1CCC(=O)NC1=O)C2 (stereo not drawn) [Compound 21]	> 3160 nM
O=C1CCC(N2Cc3cc(N4CCCCN4)ccc3C2=O)C(=O)N1 (stereo not drawn) [Compound 58]	100 to 316 nM
O=C1CCC(N2Cc3cc(C4CCC(c5ccccc5)CO4)ccc3C2=O)C(=O)N1 (single isomer, unassigned) [74 Isomer 1]	> 3160 nM
O=C1CCC(N2Cc3cc(C4CCCCO4)sc3C2=O)C(=O)N1 (stereo not drawn) [Compound 73]	> 3160 nM
Cc1cc2c(cc1C1CCCCN1)CN(C1CCC(=O)NC1=O)C2=O (stereo not drawn) [Compound 20]	> 3160 nM
O=C1CCC(N2Cc3cc(-c4cc(C(F)(F)F)ccn4)ccc3C2=O)C(=O)N1 (stereo not drawn) [26(2)]	316 to 1000 nM
O=C1CCC(N2Cc3cc(C4CCCCN4)ccc3C2=O)C(=O)N1 (stereo not drawn) [Compound 2]	316 to 1000 nM
O=C1CCC(N2C(=O)c3cccc4c(C5CCCCN5)ccc2c34)C(=O)N1 (stereo not drawn) [Compound 59]	> 3160 nM
O=C1CCC(N2Cc3cc(-c4ccccn4)sc3C2=O)C(=O)N1 (stereo not drawn) [30(2)]	> 3160 nM
O=C1CCC(N2Cc3cc(C4CCCN4)ccc3C2=O)C(=O)N1 (stereo not drawn) [Compound 6]	316 to 1000 nM
O=C1CCC(N2Cc3cc(C4CCCCN4)cc(F)c3C2=O)C(=O)N1 (stereo not drawn) [Compound 24]	> 3160 nM
O=C1CCC(N2Cc3c(csc3-c3ccccn3)C2=O)C(=O)N1 (stereo not drawn) [31(2)]	> 3160 nM
O=C1CCC(N2Cc3cc(C4COCCO4)ccc3C2=O)C(=O)N1 (stereo not drawn) [Compound 68]	316 to 1000 nM
CCCCC1CCC(c2ccc3c(c2)CN(C2CCC(=O)NC2=O)C3=O)OC1 (single isomer, unassigned) [70 Isomer 1]	> 3160 nM
O=C1CCC(N2Cc3cc(C4CCCCCN4)ccc3C2=O)C(=O)N1 (stereo not drawn) [Compound 62]	316 to 1000 nM
O=C1CCC(N2C(=O)c3ccc(C4CCCCN4)cc3C2=O)C(=O)N1 (stereo not drawn) [Compound 1]	1000 to 3160 nM
O=C1CCC(N2Cc3cc(C4CCC(c5ccccc5)CN4)ccc3C2=O)C(=O)N1 (single isomer, unassigned) [32 Isomer 1]	> 3160 nM

----------
# SUBJECT_OF_TEST: [NEK7]-[compound of formula (I)]-[CRBN/DDB1] complex (Homo sapiens, UniProt Q8TDX7+Q96SW2)
# ASSAY_OVERVIEW: AlphaLISA dose response ternary complex formation assay
# Format: binding
# DETAILS: 1 μM compound; normalized to maximum signal of Compound 2 (positive control) and DMSO background; read-out: Normalized AlphaLISA ternary complex average signal at 1 μM molecule

MOLECULE	activation at 1 µM
O=C1CCC(N2Cc3cc(N4CCCCN4)ccc3C2=O)C(=O)N1 (stereo not drawn)	20 to 80%
O=C1CCC(N2Cc3cc(C4CCCC(C(F)(F)F)N4)ccc3C2=O)C(=O)N1 (stereo not drawn)	< 10%
O=C1CCCC(N2Cc3cc(C4CCCCN4)ccc3C2=O)C(=O)N1 (stereo not drawn)	< 10%
O=C1CCC(N2Cc3cc(-c4ccccn4)ccc3C2=O)C(=O)N1 (stereo not drawn)	> 80%
Cc1cc(C2CCCCN2)cc2c1C(=O)N(C1CCC(=O)NC1=O)C2 (stereo not drawn)	< 10%
O=C1CCC(N2Cc3cc(C4COCCO4)ccc3C2=O)C(=O)N1 (stereo not drawn)	10 to 20%
CC1c2cc(-c3ccccn3)ccc2C(=O)N1C1CCC(=O)NC1=O (stereo not drawn)	> 80%
CCCCC1CCC(c2ccc3c(c2)CN(C2CCC(=O)NC2=O)C3=O)NC1 (mixture of isomers)	> 80%
O=C1CCCC(N2Cc3cc(-c4ccccn4)ccc3C2=O)C(=O)N1 (stereo not drawn)	< 10%
